- target.desc: T1, bovine LHRH receptor (bovine, UniProt P32236 1-328)
- T1 construct: whole, on cells; The receptor stood in crude membrane preparations of bovine tissue homogenates, not on intact cells; also called GnRH receptor
- T1 sequence (looked up): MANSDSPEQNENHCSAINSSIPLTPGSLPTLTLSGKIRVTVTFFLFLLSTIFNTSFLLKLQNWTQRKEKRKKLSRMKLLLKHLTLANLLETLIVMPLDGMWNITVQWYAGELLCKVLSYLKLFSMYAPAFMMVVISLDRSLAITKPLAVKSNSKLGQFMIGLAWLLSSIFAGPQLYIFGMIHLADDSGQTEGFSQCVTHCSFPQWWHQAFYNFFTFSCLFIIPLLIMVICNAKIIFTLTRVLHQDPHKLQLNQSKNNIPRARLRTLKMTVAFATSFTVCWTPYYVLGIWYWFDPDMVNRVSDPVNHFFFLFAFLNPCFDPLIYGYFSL
- experimental.protocol: displacement of 125I-deslorelin, bovine nasal MTP region membranes, high affinity site (IC50 I)
measurement.type: pIC50
Just the number, please; pIC50 means minus log10 of the concentration in mol/L.

QUERY: Supply pIC50 value. Item: EHWSYWLRP (pGlu at position 1; D-Trp at position 6; C-terminal ProNHEt (ethylamide), Synthetic LHRH analog, gift from Balance Pharmaceuticals; also called unlabelled deslorelin; unlabeled deslorelin) [deslorelin]
RESULT: 9.95
